procedure-details: Cytotoxicity against HEK293T cells assessed as cell growth inhibition incubated for 24 hrs by CCK-8 assay
Type: toxicity, cell-based, HEK-293T
condition-details: human
Please provide measured CC50 at 24 h for the entries that follow.
Could you give me the number in µM? Just the number is fine.

# CC50 at 24 h (compound: `CC(C)(C)OC(=O)N[C@@H]1CCN(c2ccc3cccc(OCC(=O)NCc4ccccc4)c3n2)C1` ) is 79.4

For reference, reported CC50 at 24 h for `CC(C)(C)OC(=O)N[C@H]1CCN(c2ccc3cccc(OCC(=O)NCc4ccccc4)c3n2)C1` stands at 72.4

For this compound ( `CC(C)(C)OC(=O)N1CCN(c2ccc3cccc(OCC(=O)NCc4ccccc4)c3n2)CC1` ), measured CC50 at 24 h is 70.8
